molecular target: T1, PADI4_D168A (human, UniProt Q9UM07 1-663, D168A); test: SPR; single cycle kinetics; biotinylated PADI4 (wild type or single-residue variant) captured on a Biotin CAPture chip, peptide or peptide analogue as analyte; 50 mM HEPES pH 7.5, 150 mM NaCl, 2 mM DTT, 0.05% Tween-20, 0.1% DMSO; 25 °C; CaCl2 concentration not told for these runs; settings: both partners purified
T1 construct: human PADI4, residues 1-663, single substitution; source: E. coli BL21-DE3, purified (Ni-NTA, S200 SEC), as told for the wild type
T1 sequence (Q9UM07 whole entry D168A, the tested form may be a part): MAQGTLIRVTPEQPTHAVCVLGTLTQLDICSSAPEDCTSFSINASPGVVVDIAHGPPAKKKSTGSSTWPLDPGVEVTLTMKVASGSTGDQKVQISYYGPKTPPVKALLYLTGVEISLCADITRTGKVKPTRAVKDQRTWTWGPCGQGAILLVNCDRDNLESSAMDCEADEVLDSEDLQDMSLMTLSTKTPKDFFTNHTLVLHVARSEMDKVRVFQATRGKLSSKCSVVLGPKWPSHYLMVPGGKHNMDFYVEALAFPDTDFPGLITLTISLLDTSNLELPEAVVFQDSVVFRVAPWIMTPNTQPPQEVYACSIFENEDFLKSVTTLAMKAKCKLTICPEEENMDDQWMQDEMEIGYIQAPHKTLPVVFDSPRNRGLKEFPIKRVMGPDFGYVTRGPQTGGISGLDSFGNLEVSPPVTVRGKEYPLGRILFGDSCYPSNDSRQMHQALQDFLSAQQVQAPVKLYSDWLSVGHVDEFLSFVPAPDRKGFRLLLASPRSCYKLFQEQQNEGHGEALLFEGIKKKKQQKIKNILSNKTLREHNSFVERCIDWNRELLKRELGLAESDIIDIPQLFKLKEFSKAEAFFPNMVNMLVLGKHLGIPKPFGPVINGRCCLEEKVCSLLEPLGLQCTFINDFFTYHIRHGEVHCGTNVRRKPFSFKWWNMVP
Bridge positions count the residues as written; N and C are the ends. Square brackets hold non-standard residues; d marks the D form.
Attribute Measured: Kd (nM)
Supply the numeric figure in nM, leaving out any unit text.

- {CH2CO}-YESCRYRQVLQL-NH2 (thioether N-4, cyclic (lariat) peptide from RaPID selection 3 (10 mM CaCl2 + Cl-amidine); also called PAD4_11; source: synthetic peptide (Fmoc solid-phase synthesis, HPLC purified)) [PADI4_11]: 4000

Request: Which Kd value is on record for {CH2CO}-[dY]RDHHYRHPKYCG-NH2 (thioether N-12, cyclic peptide from RaPID selection 1 (10 mM CaCl2); source: synthetic peptide (Fmoc solid-phase synthesis, HPLC purified)) [PADI4_3] ?
Result: 20
